Origin of values: PubChem BioAssay (NCI)

Tested on: M14 melanoma
Test: NCI tumour cell line growth inhibition, 48 h
# TGI per entry
Write the number in µM without appending the unit.

Observe how each entry below is paired with its result.
{"molecule": "Cc1[nH]ncc1-c1cc2nc(C3CC4CCN3CC4)[nH]c(=O)c2s1 (stereo unspecified)", "TGI (µM)": 83.5}
{"molecule": "C=CCC1(O)c2ccccc2C(=O)c2c(O)ccc(O)c21 (stereo unspecified)", "TGI (µM)": 27.5}
{"molecule": "C(=Nc1ccccc1)C1CCCC[N-]1.C(=Nc1ccccc1)C1CCCC[N-]1.[Cu+2].[O-][Cl+3]([O-])([O-])O (stereo unspecified)", "TGI (µM)": 27.9}
{"molecule": "Cc1c2cnccc2c(C)c2c1c1cc(C3OCCCO3)ccc1n2C", "TGI (µM)": 1.16}

API: the following record is the query input.
Could you tell me which TGI is on file for Cc1cc(C)nc(NC(N)=NCCc2ccccc2)n1 ?
24.2

---

Test system: CAKI-1 renal
Test: NCI tumour cell line growth inhibition, 48 h
observed-property: TGI

Observe how each entry below is paired with its result.
{"compound": "COC(=O)[C@H](Cc1ccccc1)NC(=O)c1ccc(CNC(=O)/C=C/c2ccc(-c3ccccc3)cc2)cc1", "result": "> 100 µM"}
{"compound": "Cn1cc(-c2nonc2-c2c[nH]c3ccccc23)c2ccccc21", "result": "15 µM"}
{"compound": "O=C(CP(c1ccccc1)c1ccccc1)c1cccc(C(=O)CP(c2ccccc2)c2ccccc2)c1", "result": "> 100 µM"}
{"compound": "CCC1(C)NN=c2s/c(=C/c3ccc(OC)cc3)c(=O)n2N1 (stereo not given)", "result": "> 100 µM"}
{"compound": "S=c1sc2c(Cl)ncnc2n1-c1ccccc1", "result": "13.8 µM"}

Could you tell me which TGI is on file for Cc1nc2c(=S)[nH]ncc2[nH]1 ?
> 100 µM

Could you tell me which TGI is on file for O=C1c2ccccc2C2(O)Nc3cc(O)ccc3C12O (stereo not given) ?
> 100 µM

Could you tell me which TGI is on file for O=C(c1ccccc1)c1ccc2c(c1)nc1n2C(c2c(Cl)cccc2Cl)SC1 (stereo not given) ?
> 100 µM

Could you tell me which TGI is on file for O=C(CC1=Nc2nnc(-c3nnc4n3C(=O)C(CC(=O)c3cccnc3)=N4)n2C1=O)c1cccnc1 ?
> 100 µM

Could you tell me which TGI is on file for C=CC(=O)Nc1ccc(Nc2nccc(-c3ccc(N4CCCC4)c(C#N)c3)n2)cc1 ?
> 25 µM

---

Test system: SF-268 CNS
Assay: NCI tumour cell line growth inhibition, 48 h; in the data active means GI50 below about 0.43 µM; inactive means the rest
Give your call using only these classes: active, inactive

{"smiles-input": "COC(=O)[C@@H](NC(=O)NC(=O)NC(=O)CI)C(C)C", "category-label": "inactive"}
{"smiles-input": "COC1=CC(c2ccc[nH]2)=N/C1=C\\c1[nH]c(C)c(C(=O)OCc2ccccc2)c1C", "category-label": "active"}
{"smiles-input": "C=CC(=O)Nc1ccc(Nc2nccc(-c3ccc(N4CCCC4)c(C#N)c3)n2)cc1", "category-label": "inactive"}
{"smiles-input": "Cc1nc2sccn2c1/C=C1/C(=O)Nc2ccccc21", "category-label": "inactive"}

Pending molecule:
Tell me the assay call for C=C1C(=O)O[C@H]2[C@H]1CC/C(CNC(=O)/C=C/c1ccc(Br)cc1)=C\CC[C@@]1(C)O[C@@H]21 please.
inactive
